tgt: furin, P09958
Sequence (P09958 whole entry): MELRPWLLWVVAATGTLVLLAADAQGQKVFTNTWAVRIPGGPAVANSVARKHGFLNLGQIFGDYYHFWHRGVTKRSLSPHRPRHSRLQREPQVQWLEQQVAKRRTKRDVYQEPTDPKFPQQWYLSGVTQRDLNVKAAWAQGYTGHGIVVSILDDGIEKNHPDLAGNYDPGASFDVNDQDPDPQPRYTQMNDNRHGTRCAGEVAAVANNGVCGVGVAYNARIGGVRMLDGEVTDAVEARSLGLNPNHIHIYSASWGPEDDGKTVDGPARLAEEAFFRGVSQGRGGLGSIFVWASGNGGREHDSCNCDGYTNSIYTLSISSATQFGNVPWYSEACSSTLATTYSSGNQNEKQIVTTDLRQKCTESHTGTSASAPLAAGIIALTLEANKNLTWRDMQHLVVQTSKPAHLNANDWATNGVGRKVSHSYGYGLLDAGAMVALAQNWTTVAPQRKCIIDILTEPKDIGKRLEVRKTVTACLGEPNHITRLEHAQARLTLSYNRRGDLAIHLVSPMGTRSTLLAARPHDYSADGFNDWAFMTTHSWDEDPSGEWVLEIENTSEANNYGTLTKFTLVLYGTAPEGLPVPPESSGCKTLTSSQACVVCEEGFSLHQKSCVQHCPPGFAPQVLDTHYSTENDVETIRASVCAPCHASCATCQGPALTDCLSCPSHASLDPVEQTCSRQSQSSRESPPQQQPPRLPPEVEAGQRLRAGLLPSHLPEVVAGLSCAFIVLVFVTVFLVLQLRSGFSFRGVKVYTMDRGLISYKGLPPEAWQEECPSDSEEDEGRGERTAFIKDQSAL
test_description: furin cleavage Z-score vs untreated control; higher = more cleavage, active = 3.5 or more, inactive = 1 or less, 8 variable residues between constant flanks;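 note: purified furin at 1:10 enzyme:substrate in 50 mM HEPES pH 7.5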
measurement_parameters: 15 min
The other results are listed elsewhere or left out. No count for the full screen is at hand.
measured_attribute: furin cleavage Z-score
Note: the reply should be a number with no unit written.

Use the examples below as a reference point.
seq_text | recorded_number
CALCECYDAGAGNASASA [HC919] | 0.625
CAKRKRSKRKAGNASASA [FS-1223] | 10.5
CAEVVTSTDVAGNASASA [HC2231] | 0.743
CAGRKPARLIAGNASASA [HC1447] | -1.33
CAVVRCSMSYAGNASASA [HC2033] | 0.684
CAGAPTYSWGAGNASASA [HC422] | -0.574

Prompt line: Would you mind telling me what furin cleavage Z-score value was observed for CASTPCSDHLAGNASASA [HC2531] ?
Response line: 0.929
